RLU Selectivity values, listed per item
system: P. aeruginosa T3SS (exoT-luxCDABE reporter strain MDM852); type: cell-based, Pseudomonas aeruginosa; conditions: % inhibition of exoT-lux RLU/% inhibition of lac-lux RLU, both at 50 μM compound
Keep it simple and answer with nothing but the number.

CCN1CCOC(CC(=O)Nc2ccc(F)cc2)C1=O (stereo not drawn) [Compound 4] ... 3.9

Q) Return reported RLU Selectivity for target or system P. aeruginosa T3SS (exoT-luxCDABE reporter strain MDM852), item Cc1ccc(N2C(=O)C3C(C2=O)C2(C)C=CC3(C)O2)c(C)c1 (stereo not drawn) [Compound 8] .
A) 9.2

Q) Return reported RLU Selectivity for target or system P. aeruginosa T3SS (exoT-luxCDABE reporter strain MDM852), item CCN1CCOC(CC(=O)Nc2ccc3c(c2)OCCO3)C1=O (stereo not drawn) [Compound 3] .
A) 4.1

Q) Return reported RLU Selectivity for target or system P. aeruginosa T3SS (exoT-luxCDABE reporter strain MDM852), item CN1CCN(C(=S)c2ccc(N(C)C)cc2)CC1 [Compound 11] .
A) 22

Q) Return reported RLU Selectivity for target or system P. aeruginosa T3SS (exoT-luxCDABE reporter strain MDM852), item Cc1ccc(NC(=O)/C=C/C(=O)OCC(F)(F)C(F)F)cc1 [Compound 5] .
A) 4.5

Q) Return reported RLU Selectivity for target or system P. aeruginosa T3SS (exoT-luxCDABE reporter strain MDM852), item O=C(CC1Sc2ncnn2C1=O)Nc1ccccc1 (stereo not drawn) [Compound 2] .
A) 2.6

Q) Return reported RLU Selectivity for target or system P. aeruginosa T3SS (exoT-luxCDABE reporter strain MDM852), item NC(=O)/C=C/C(=O)Nc1ccccc1Cl [Compound 7, N1-(2-chlorophenyl)fumaramide] .
A) 4.7

Q) Return reported RLU Selectivity for target or system P. aeruginosa T3SS (exoT-luxCDABE reporter strain MDM852), item CCc1ccc2nc(N3C(=O)C(O)=C(C(=O)c4cccs4)C3c3ccc([N+](=O)[O-])cc3)sc2c1 (stereo not drawn) [Compound 10] .
A) 3.8

Q) Return reported RLU Selectivity for target or system P. aeruginosa T3SS (exoT-luxCDABE reporter strain MDM852), item NC(=O)/C=C/C(=O)Nc1ccccc1 [Compound 6, N1-phenylfumaramide] .
A) 3.6

* * *

CC50/IC50 values, listed per item
test system: HeLa cells; settings: ratio of HeLa CC50 vs ExoS′-βLA IC50
Keep it simple and answer with nothing but the number.

NC(=O)/C=C/C(=O)Nc1ccccc1 [Compound 6, N1-phenylfumaramide] ... 1.8
O=C(CC1Sc2ncnn2C1=O)Nc1ccccc1 (centres unmarked) [Compound 2] ... 3.1

Next up:
Q) Fill in CC50/IC50 for record CN1CCN(C(=S)c2ccc(N(C)C)cc2)CC1 [Compound 11]
A) 0.9
